The values you see were collected from ChEMBL document CHEMBL3988442.

Catalogue of Percent Effect values
biological target: Aspartate--tRNA(Asp/Asn) ligase (Mycobacterium tuberculosis (strain ATCC 25618 / H37Rv)) (UniProt P9WFW3); assay: Assay for Asp RNA synthetase-1 from Mycobacterium tuberculosis; assay type: functional; design: scale not given: in the data most compounds retested in dose-response had high values; conditions: 30 µM
Sequence (P9WFW3 whole entry): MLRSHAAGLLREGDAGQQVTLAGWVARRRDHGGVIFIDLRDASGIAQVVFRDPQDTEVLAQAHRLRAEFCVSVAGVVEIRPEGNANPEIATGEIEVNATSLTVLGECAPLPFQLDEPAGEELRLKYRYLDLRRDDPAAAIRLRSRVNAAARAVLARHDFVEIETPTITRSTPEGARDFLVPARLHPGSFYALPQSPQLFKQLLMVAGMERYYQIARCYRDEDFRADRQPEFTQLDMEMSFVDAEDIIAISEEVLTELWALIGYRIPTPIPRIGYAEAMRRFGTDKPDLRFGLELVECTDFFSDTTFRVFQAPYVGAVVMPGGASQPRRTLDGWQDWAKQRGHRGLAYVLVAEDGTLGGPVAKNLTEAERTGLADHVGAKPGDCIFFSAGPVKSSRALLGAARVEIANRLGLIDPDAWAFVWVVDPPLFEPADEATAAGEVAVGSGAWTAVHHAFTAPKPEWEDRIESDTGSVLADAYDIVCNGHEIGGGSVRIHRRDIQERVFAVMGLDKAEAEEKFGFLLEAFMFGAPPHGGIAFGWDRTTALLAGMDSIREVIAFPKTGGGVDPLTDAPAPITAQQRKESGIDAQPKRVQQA
Please give a number only; it is taken to be in %.

See these solved cases before continuing.
compound | Percent Effect (%)
CN(Cc1ccsc1)C(=O)c1cc2c([nH]c1=O)CCCC2=O | -1.51
Cc1cc(C(=O)N2CC[C@@H]3CN(c4ncccn4)CCO[C@@H]3C2)c(C)o1 | 7.23
CN(CCCc1ccccc1)Cc1nc2c(cnn2C)c(=O)[nH]1 | 1.38
Cc1csc(CNC(=O)NCC(O)c2cccc(Cl)c2)n1 (stereo unspecified) | 3.71
Cc1nn(C)c(Cl)c1C1CCCN1C(=O)c1cc[nH]n1 (stereo unspecified) | 3.04

Query string: Reported Percent Effect, compound Cn1cc(C(=O)N[C@@H]2CN(Cc3cccs3)[C@@H]3CCCO[C@@H]32)cn1 : ____
Result string: 1.75

Query string: Reported Percent Effect, compound Cc1cc(C)n(CC2CCCN2CCS(=O)(=O)c2ccccc2)n1 (stereo unspecified) : ____
Result string: -0.833

Query string: Reported Percent Effect, compound COC(=O)CCN1CCCC1c1cccc2c1OCCO2 (stereo unspecified) : ____
Result string: -1.34
